tested on: BT-549; assay: NCI tumour cell line growth inhibition, 48 h
The source made the active and inactive calls. Rule as the data show it: active = GI50 up to about 1.1 µM and inactive = higher.
GI50 by entry:

// known answers, use as guide
> print(dat)
                        structure.as.smiles  value.kind           test.value
1        CCCSc1ccc2[nH]c(/N=C/c3ccco3)cc2c1        GI50     31 µM (inactive)
2  COc1cc(N(CCC#N)CCC#N)ccc1C(/N=N/c1cccc(C)c1)=N\NC(=O)c1ccc(C)cc1        GI50  > 100 µM (inactive)

-- ask Read the entry Cc1sc2nc3n(c(=O)c2c1C)N=C(c1ccc(Cl)cc1)CS3 and write its reported GI50.
-- reply 31.6 µM (inactive)

-- ask Check the records and state GI50 for O=P1(c2ccccc2)C(c2ccccc2)=CC=C1c1ccccc1
-- reply 18.8 µM (inactive)

-- ask Answer with reported GI50 of COC1=C(Br)[C@H](O)[C@@]2(C=C1Br)CC(C(=O)NCCCCCNC(=N)N)=NO2
-- reply > 10 µM (inactive)
